Molecular target: 5-HT1B (Homo sapiens, UniProt P28222)
Sequence (P28222 whole entry, species assumed): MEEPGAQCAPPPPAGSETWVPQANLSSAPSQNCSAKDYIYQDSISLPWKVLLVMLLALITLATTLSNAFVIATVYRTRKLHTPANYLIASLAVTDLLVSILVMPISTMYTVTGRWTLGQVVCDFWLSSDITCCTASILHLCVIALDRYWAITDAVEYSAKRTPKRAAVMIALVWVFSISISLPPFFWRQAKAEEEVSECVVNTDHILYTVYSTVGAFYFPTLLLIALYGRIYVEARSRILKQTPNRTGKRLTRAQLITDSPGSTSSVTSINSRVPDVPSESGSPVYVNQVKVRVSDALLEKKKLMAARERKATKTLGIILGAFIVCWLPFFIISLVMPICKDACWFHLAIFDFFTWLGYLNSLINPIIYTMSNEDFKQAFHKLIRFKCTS
Experiment: 5-HT receptor activity panel (Table 3)
VALUE KIND: EC50 (µM)
Number only, in µM; omit the unit.

Asked: Give me measured EC50, please, for this compound: CN(C)CCc1c[nH]c2cccc(O)c12 [psilocin, reference compound]
Given back: 0.0143

----------
Target: 5-HT2A receptor (Homo sapiens, UniProt P28223)
Construct: expressed in transfected cells; host or cells: HEK293T
Sequence (P28223 whole entry): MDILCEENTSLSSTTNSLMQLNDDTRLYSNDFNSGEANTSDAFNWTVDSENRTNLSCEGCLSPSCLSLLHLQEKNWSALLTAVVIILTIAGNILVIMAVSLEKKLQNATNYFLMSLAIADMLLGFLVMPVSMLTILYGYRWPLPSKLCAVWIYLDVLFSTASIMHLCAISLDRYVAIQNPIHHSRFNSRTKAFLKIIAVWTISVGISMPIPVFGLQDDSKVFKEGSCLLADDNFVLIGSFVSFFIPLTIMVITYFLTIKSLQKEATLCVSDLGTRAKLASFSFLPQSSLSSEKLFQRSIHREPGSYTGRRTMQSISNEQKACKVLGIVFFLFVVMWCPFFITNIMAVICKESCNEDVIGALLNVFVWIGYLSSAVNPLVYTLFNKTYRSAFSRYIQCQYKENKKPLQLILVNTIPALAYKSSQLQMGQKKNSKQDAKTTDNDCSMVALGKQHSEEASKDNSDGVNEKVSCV
Experiment: 5-HT2A Gq dissociation BRET functional assay
Type: cell-based
Settings: Table 2; at least three replicate trials; read-out: 5-HT2A BRET EC50
VALUE KIND: log10(EC50) (log10 of the value in nM)
On a log10 scale: recorded EC50, unit nM.

Asked: Give me measured log10(EC50), please, for this molecule: `N#Cc1ccc(CCNCc2ccccc2O)cc1`
Given back: 2.19

Asked: Give me measured log10(EC50), please, for this molecule: `COc1cc(C#N)ccc1CCNCc1cccc2occc12`
Given back: 1.47

Asked: Give me measured log10(EC50), please, for this molecule: `COc1cc(C#N)ccc1CCNCC1CC1`
Given back: 4.03

Asked: Give me measured log10(EC50), please, for this molecule: `N#Cc1ccc(CCNCc2cccc3ccsc23)c(O)c1`
Given back: -0.52

Asked: Give me measured log10(EC50), please, for this molecule: `COc1cc(-c2ncco2)ccc1CCNCc1ccccc1Cl`
Given back: 3.32

Asked: Give me measured log10(EC50), please, for this molecule: `N#Cc1ccc(CCNCc2ccccc2OC(F)(F)F)c(O)c1`
Given back: 2.20

Asked: Give me measured log10(EC50), please, for this molecule: `N#Cc1ccc(CCNCc2ccsc2Cl)c(O)c1`
Given back: 3.10

Asked: Give me measured log10(EC50), please, for this molecule: `CSc1ccccc1CCNCCc1ccc(C#N)cc1O`
Given back: 2.58

Asked: Give me measured log10(EC50), please, for this molecule: `COc1cc(Oc2ccccc2)ccc1CCNCc1ccccc1O`
Given back: 1.43

Asked: Give me measured log10(EC50), please, for this molecule: `CSc1ccccc1CNC[C@@H]1CCc2cc(C#N)cc(O)c21`
Given back: 3.29

Asked: Give me measured log10(EC50), please, for this molecule: `CSc1ccccc1CNCCCc1ccc(C#N)cc1O`
Given back: 3.14

Asked: Give me measured log10(EC50), please, for this molecule: `N#Cc1ccc(CCNCc2cccc3cc[nH]c23)c(O)c1`
Given back: 3.06

Asked: Give me measured log10(EC50), please, for this molecule: `COc1cc(C#N)ccc1CCNCc1cccs1`
Given back: 2.27
